Data provenance: BindingDB's records for doi:10.1111/cbdd.12663

target: Dipeptidyl peptidase 4 [K6R,T557I] (Homo sapiens, UniProt P27487, K6R/T557I); assay: DPP-IV Inhibition Screening Assay
Sequence (P27487 whole entry K6R/T557I/D663E): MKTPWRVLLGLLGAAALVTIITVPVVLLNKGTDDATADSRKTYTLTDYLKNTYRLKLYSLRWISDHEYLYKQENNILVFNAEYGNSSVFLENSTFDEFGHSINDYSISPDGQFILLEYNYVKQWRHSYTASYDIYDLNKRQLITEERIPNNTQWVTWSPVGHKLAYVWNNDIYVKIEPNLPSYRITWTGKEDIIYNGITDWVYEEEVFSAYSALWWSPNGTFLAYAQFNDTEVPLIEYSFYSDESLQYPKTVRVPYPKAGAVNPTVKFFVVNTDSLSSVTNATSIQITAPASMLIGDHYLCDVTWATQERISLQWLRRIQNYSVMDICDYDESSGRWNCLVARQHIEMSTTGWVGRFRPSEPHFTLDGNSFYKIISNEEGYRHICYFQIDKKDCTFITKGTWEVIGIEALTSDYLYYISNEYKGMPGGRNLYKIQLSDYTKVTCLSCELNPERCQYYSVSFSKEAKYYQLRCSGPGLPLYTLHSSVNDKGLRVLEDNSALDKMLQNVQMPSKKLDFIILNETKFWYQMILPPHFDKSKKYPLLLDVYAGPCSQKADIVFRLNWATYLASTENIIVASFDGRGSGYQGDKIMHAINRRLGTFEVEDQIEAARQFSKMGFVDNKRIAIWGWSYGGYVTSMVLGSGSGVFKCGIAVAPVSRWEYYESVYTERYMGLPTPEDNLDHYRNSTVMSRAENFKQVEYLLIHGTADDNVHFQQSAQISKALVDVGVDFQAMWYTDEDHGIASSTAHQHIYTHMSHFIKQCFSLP
observed property: IC50 (nM)

CC(C)=CCn1c(N2CCC[C@H](N)C2)nc2c1c(=O)n(Cc1ccccc1C#N)c(=O)n2C [(S)-40] | 108
CC(C)=CCn1c(N2CCC[C@@H](N)C2)nc2c1c(=O)n(Cc1ccccc1C#N)c(=O)n2C [(R)-40] | 23.5
CC(C)=CCn1c(N2CCC[C@@H](N)C2)nc2c1c(=O)n(Cc1nc3ccccc3s1)c(=O)n2C [(R)-43] | 36.2
CC(C)=CCn1c(N2CCC[C@H](N)C2)nc2c1c(=O)n(Cc1nc3ccccc3s1)c(=O)n2C [(S)-43] | 36.9
